Target: P2X7 receptor (Homo sapiens, UniProt Q99572)
Assay: Screen Quest Fluo-8 No Wash Calcium Assay (Bz-ATP evoked Ca2+ influx, FLIPR)
Format: cell-based
Set-up: hP2X7 (IC50; nM); other: hP2X7; HEK-293 cells stably transfected with P2X7 receptor, Bz-ATP at EC80, Fluo-8 NW; potency
Conditions: hP2X7; HEK-293 cells stably transfected with P2X7 receptor, Bz-ATP at EC80, Fluo-8 NW; potency ranges A-D
In this section we review reported IC50 values for a set of compounds.

The examples below pair each entry with its known result.
>>> test_value("O=c1onc(CC2CCC(F)(F)CC2)n1Cc1ccc(C(F)(F)F)o1")
"1000 to 10000 nM"
>>> test_value("O=c1onc(Cc2cccc(Cl)c2Cl)n1Cc1ccc(F)cc1")
"200 to 1000 nM"

Determine from records and report IC50 for O=c1onc(Cc2cccc(C(F)(F)F)c2Cl)n1CC1CCCCC1
1000 to 10000 nM

Determine from records and report IC50 for O=c1onc(Cc2ccccc2F)n1Cc1c(F)cccc1Cl
1000 to 10000 nM

Determine from records and report IC50 for Cc1noc(C)c1Cn1c(Cc2c(F)cccc2Cl)noc1=O
1000 to 10000 nM

Determine from records and report IC50 for Cc1nn(C)c(C)c1Cc1noc(=O)n1Cc1ccc(F)cc1
1000 to 10000 nM

Determine from records and report IC50 for Cn1c(Cc2c(F)cccc2Cl)noc1=O
> 10000 nM

Determine from records and report IC50 for O=c1onc(Cc2ccc(Cl)cc2Cl)n1Cc1ccc(F)cc1
1000 to 10000 nM

Determine from records and report IC50 for Cc1noc(Cn2c(CC3CCC(F)(F)CC3)noc2=O)n1
> 10000 nM

Determine from records and report IC50 for O=c1onc(Cc2c(F)cccc2Cl)n1Cc1ccccc1
200 to 1000 nM

Determine from records and report IC50 for O=c1onc(Cc2c(F)cccc2Cl)n1CC1(F)CCCCC1
200 to 1000 nM

Determine from records and report IC50 for O=c1onc(CC2CCC(F)(F)CC2)n1Cc1ncc(F)cn1
> 10000 nM

Determine from records and report IC50 for O=c1onc(Cc2c(F)cccc2Cl)n1Cc1ccc(C(F)(F)F)o1
200 to 1000 nM

Determine from records and report IC50 for O=c1onc(CN2CCOc3ccccc32)n1Cc1ccc(F)cc1
< 200 nM

Determine from records and report IC50 for Cc1ccc(Cn2c(Cc3c(F)cccc3Cl)noc2=O)cc1
1000 to 10000 nM

Determine from records and report IC50 for Cc1ccccc1Cn1c(Cc2c(F)cccc2Cl)noc1=O
1000 to 10000 nM

Determine from records and report IC50 for CC1(C)CCC(Cn2c(Cc3c(F)cccc3Cl)noc2=O)CC1
200 to 1000 nM

Determine from records and report IC50 for O=c1onc(CC2CCC(F)(F)CC2)n1CCc1ccccc1
> 10000 nM

Determine from records and report IC50 for CCOCn1c(Cc2c(F)cccc2Cl)noc1=O
> 10000 nM

Determine from records and report IC50 for CC(c1ccc(F)cc1)n1c(Cc2c(F)cccc2Cl)noc1=O (centres unmarked)
200 to 1000 nM

###

Target: P2X7 receptor (Homo sapiens)
Sequence (Q99572 1-595): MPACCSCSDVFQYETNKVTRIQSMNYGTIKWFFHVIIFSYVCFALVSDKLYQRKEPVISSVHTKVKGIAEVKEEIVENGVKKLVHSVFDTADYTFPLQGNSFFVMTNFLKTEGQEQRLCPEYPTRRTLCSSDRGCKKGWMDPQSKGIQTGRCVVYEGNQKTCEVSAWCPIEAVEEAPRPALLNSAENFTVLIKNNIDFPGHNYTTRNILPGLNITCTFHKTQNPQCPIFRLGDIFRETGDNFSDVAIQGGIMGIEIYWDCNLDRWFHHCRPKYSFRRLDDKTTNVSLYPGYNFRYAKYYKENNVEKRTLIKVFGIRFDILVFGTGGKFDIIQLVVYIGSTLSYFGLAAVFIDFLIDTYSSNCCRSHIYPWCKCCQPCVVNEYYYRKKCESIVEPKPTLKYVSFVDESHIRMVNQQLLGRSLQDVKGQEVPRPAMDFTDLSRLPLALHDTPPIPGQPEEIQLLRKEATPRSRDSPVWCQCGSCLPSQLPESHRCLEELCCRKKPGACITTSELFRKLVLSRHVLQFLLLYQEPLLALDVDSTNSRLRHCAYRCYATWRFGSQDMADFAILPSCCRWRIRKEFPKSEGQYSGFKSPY
Assay: Screen Quest Fluo-8 No Wash Calcium Assay (Bz-ATP evoked Ca2+ influx, FLIPR)
Format: cell-based
Design: hP2X7 (IC50; nM); other: hP2X7; HEK-293 cells stably transfected with P2X7 receptor, Bz-ATP at EC80, Fluo-8 NW; potency
Conditions: hP2X7; HEK-293 cells stably transfected with P2X7 receptor, Bz-ATP at EC80, Fluo-8 NW; potency ranges A-D
In this section we review reported IC50 values for a set of compounds.

Give reported IC50 for O=c1onc(Cc2ccc(F)cc2F)n1Cc1ccc(F)cc1 [Example 80] (P2X7 receptor (Homo sapiens))
1000 to 10000 nM

Give reported IC50 for COc1cccc(Cc2noc(=O)n2Cc2ccc(F)cc2)c1 [Example 109] (P2X7 receptor (Homo sapiens))
1000 to 10000 nM

Give reported IC50 for O=c1onc(CN2CCOc3ccccc32)n1CC1CCC(F)(F)CC1 [Example 231] (P2X7 receptor (Homo sapiens))
< 200 nM

Give reported IC50 for O=c1onc(Cc2c(F)cccc2Cl)n1CC1CCC(C(F)(F)F)CC1 (stereo not shown) [Example 184] (P2X7 receptor (Homo sapiens))
< 200 nM

Give reported IC50 for O=c1onc(Cc2c(F)cccc2Cl)n1CCCN1CCC(F)(F)CC1 [Example 182] (P2X7 receptor (Homo sapiens))
1000 to 10000 nM

Give reported IC50 for CC(c1ccccc1)n1c(CC2CCC(F)(F)CC2)noc1=O (stereo not shown) [Example 188] (P2X7 receptor (Homo sapiens))
1000 to 10000 nM
